Hello, the source for this data is PubChem BioAssay (NCI), in case you need it.

# Tested on: CAKI-1 renal
# assayMethodText: NCI-60 one-dose screen, 48 h
# assaySetup: 10 µM unless noted
Compounds without any hit were thinned out: in the full panel of roughly 83,000, 20% have a hit. The source made the active and inactive calls. Rule for the calls: active = growth percent below 10; inactive = the rest.
Classes used: active, inactive

1. CC1C(C)N(C(=O)CCl)c2ccccc2N1C(=O)CCl (configuration not stated)
active
2. Cc1c2oc3c(C)ccc(C(=O)OC(C)C4NC(=O)C(C(C)C)N(C)C(=O)CN(C)C(=O)C5CCCN5C(=O)C(C(C)C)NC4=O)c3nc-2c(C(=O)OC(C)C2NC(=O)C(C(C)C)N(C)C(=O)CN(C)C(=O)C3CCCN3C(=O)C(C(C)C)NC2=O)c(N)c1=O (configuration not stated)
active
3. O=C1OC2(c3ccccc31)c1ccccc1-c1ccccc12
inactive
4. CC(C)Sc1nc(Cl)c(C#N)c(-c2ccc(F)cc2)n1
inactive
5. c1ccc(-c2oc(-c3ccccc3)c3ccccc23)cc1
inactive
6. O=C(O)C1C(c2ccccc2)c2ccccc2C(O)C1CO (configuration not stated)
inactive
7. N/C(=N\C(N)=N\c1nc2ccccc2s1)c1ccnc(Cl)c1
inactive
8. O=C(O)CCC(=O)OC[C@@H](NC(=O)C(Cl)Cl)[C@H](O)c1ccc([N+](=O)[O-])cc1
inactive
9. Fc1ccccc1C1c2ccccc2-c2nccn21 (configuration not stated)
inactive
10. C1CCC(C(CC2CCCCN2)C2CCCCC2)CC1 (configuration not stated)
active
11. CCCCNCCCN(CCCC)CCCNCCCC
inactive
12. N#Cc1ccc(-c2csc(Nc3ccc4nc5n(c(=O)c4c3)CCC5)n2)cc1
inactive
13. O=C(c1ccccc1)C(CN1CCCCC1)c1ccccc1 (configuration not stated)
active
14. COc1cccc(/C=N/Nc2nc3ccccc3s2)c1OC
inactive
15. Nc1ccccc1-c1ccn[nH]1
inactive
16. ICCC(c1ccccc1)(c1ccccc1)c1ccccc1
inactive
17. CNc1nc(NC2CCCC2)nc(Sc2ccc(OC)cc2)n1
active
18. O=CN1N=C(c2ccc(Nc3ccnc4cc(Cl)ccc34)cc2)CC1c1ccc(Cl)cc1 (configuration not stated)
inactive
19. CC(=O)Nc1ccc(C(=O)COc2ccc(/C=C3\CCc4ccccc4C3=O)cc2)cc1
inactive
20. COc1ccc(-c2cc(-c3cccnc3)nc3sc(C(=O)Nc4ccccc4)c(N)c23)cc1OC
inactive
21. CN(C)c1ccc(-n2nc3ccccc3n2)cc1
inactive
22. OC(c1ccccc1)C(NCc1ccccc1)c1ccccc1 (configuration not stated)
inactive
23. COc1cccc(/C=N\NC(=O)c2ccncc2)c1O
inactive
24. CC(NC(=O)Oc1cccc2ccccc12)c1ccccc1 (configuration not stated)
inactive
25. C[N+]1(C)C2CC[C@@H]1CC(OC(=O)C(O)c1ccccc1)C2 (some centres not stated)
inactive
26. NC(=N\N=C/Cc1ccccc1)/C(N)=N\N=C\Cc1ccccc1
inactive
27. CC12CCC3C(=CCc4cc(O)ccc43)C1CCC2=O (configuration not stated)
inactive
28. COc1ccc(NS(=O)(=O)N2CCCCC2)cc1
inactive
29. OCCN1CCN(CCCN2c3ccccc3Sc3ccc(C(F)(F)F)cc32)CC1
inactive
30. CN(C)CCCN=c1cc2c(=O)n(CCCN(C)C)c(=O)c3c(NCCCN(C)C)cc4c(O)n(CCCN(C)C)c(=O)c1c4c3-2
active
31. CN(C)c1ncnc2c1ncn2C1CCCCO1 (configuration not stated)
inactive
32. NS(=O)(=O)c1ccc(-n2nc(-c3ccc(Br)cc3)ccc2=O)cc1
inactive
33. Cc1ncc(C(=O)Nc2ccc(CN3CCN(C)CC3)c(C(F)(F)F)c2)cc1C#Cc1cncc2ncccc12
inactive
34. Cc1[nH]cnc1/C=C1\SC(N2CCCCC2)=NC1=O
inactive
35. Cc1cc(C(=O)Nc2ccc3cc(CN4CCOCC4)ccc3n2)c(C)n1-c1ccccc1
inactive
36. NC(=O)c1cc(Cl)ccc1NC(=O)c1ccccc1-c1ccccc1
inactive
37. O=C1OC(Oc2ccccc2)(c2ccccc2)c2ccccc21 (configuration not stated)
inactive
38. Cc1[nH]ccc2cc3nc4ccccc4c3cc12
inactive
39. CCOC(=O)CCN(c1c(Cl)ssc1=O)C(C)C
inactive
40. O=C(C(=O)N1CCOCC1)c1cn(CCCn2cc(C(=O)C(=O)N3CCOCC3)c3ccccc32)c2ccccc12
inactive
41. CN1CCC[C@@H]1CCO[C@](C)(c1ccccc1)c1ccc(Cl)cc1
inactive
42. C[C@H]1O[C@@H](O[C@H]2[C@@H](O)C[C@H](O[C@H]3[C@@H](O)C[C@H](O[C@H]4CC[C@]5(C)C6CC[C@]7(C)[C@@H](C8=CC(=O)OC8)CC[C@]7(O)C6CC[C@@H]5C4)O[C@@H]3C)O[C@@H]2C)C[C@H](O)[C@@H]1O (some centres not stated)
active
